system: OVCAR-8 ovarian; experiment: NCI-60 one-dose screen, 48 h (100 = growth as untreated, 0 = no growth, -100 = all killed); settings: 10 µM unless noted
This is part of a sample that, as a whole, favours compounds with a hit. Of some 83,000 tested, about 20% had one in any assay.
Item-by-item account of growth
Quantity Measured: growth (%)

{"columns": ["Compound", "Quantity Measured", "Quantitative Result"],
 "data": [
  ["C=C[C@@H]1CCC/C=C/[C@@H]2C[C@H](O)C[C@H]2[C@H](O)/C=C/C(=O)O1", "growth", 21.4],
  ["O=C(Cn1cc(COc2ncnc3c2cnn3-c2ccccc2)nn1)Nc1ccccn1", "growth", 92.5],
  ["CC1(O)COCCCCOc2c(CN)cccc2NC(=O)c2nc(cnc2N)-c2ccc(cc2)S(=O)(=O)C(C)(C)C1 (stereo not drawn)", "growth", -22.8],
  ["COc1ccccc1N1CCN(C(CNS(=O)(=O)c2ccc(Cl)cc2)c2cccnc2)CC1 (stereo not drawn)", "growth", 100],
  ["COC(=O)[C@H](NC(=O)C1(C)CCC[C@]2(C)[C@H]3C[C@H]4C(C(C)C)=C[C@]3(CC[C@@H]12)[C@@H]1C(=O)CCC(=O)[C@@H]14)C(C)C (stereo partly drawn)", "growth", 101],
  ["O=c1cc(-c2ccccc2)oc2cc(OCc3cn(Cc4ccc(F)cc4)nn3)cc(OCc3cn(Cc4ccc(F)cc4)nn3)c12", "growth", 12.7],
  ["O=C(COc1cc(O)c2c(=O)cc(-c3ccccc3)oc2c1)Nc1ccccc1C(F)(F)F", "growth", 29],
  ["O=C(Nc1ccc(N2CCNCC2)cc1)c1[nH]ncc1Nc1cc(C2CC2)ncn1", "growth", 81.2]
]}

* * *

test system: EKVX NSCLC; assay: NCI-60 one-dose screen, 48 h; conditions: 10 µM unless noted
This is part of a sample that, as a whole, favours compounds with a hit. Of some 83,000 tested, about 20% had one in any assay. Active and inactive are the calls of the source. How the source made its calls: active means growth percent below 10; inactive means the rest.
Possible outcomes: active, inactive

{"columns": ["Molecule", "Group Label"],
 "data": [
  ["Cc1ccc(N=NC2C(=O)N(c3ccc(Cl)cc3)N(c3ccc(Cl)cc3)C2=O)cc1", "inactive"],
  ["COc1ccc(N(C)c2nc(N)nc3sc4c(c23)CCCC4)cc1", "inactive"],
  ["COc1ccc(-n2c(C(O)c3ccccc3)nn(CN3CCOCC3)c2=S)cc1 (stereo unspecified)", "inactive"],
  ["O=c1oc2ccc(I)cc2c(=O)n1-c1ccc(I)cc1F", "active"],
  ["NC(=O)CSc1nc(-c2ccc(F)cc2)cc(-c2ccco2)n1", "inactive"],
  ["COC(=O)c1c2c(c(C)[n+]([O-])c1C)C(=O)C=C(NCc1ccc(F)c(F)c1)C2=O", "active"],
  ["CC(C)C[C@H](C(=O)N[C@@H](C)C(N)=O)N1CC=CCN(O)S1(=O)=O", "inactive"],
  ["Cc1ccc2sc3c(NCCCNCCO)nc4ccccc4c3c(=O)c2c1", "inactive"],
  ["NCCCNc1nc2ccccc2c2c(=O)c3cc(F)ccc3sc12", "inactive"],
  ["O=C1/C(=C\\c2ccc[nH]2)c2ccccc2N1c1ccccc1", "inactive"],
  ["O=C(c1ccccc1)N(C(=S)NCCc1ccc(Cl)cc1)c1ccccc1", "inactive"],
  ["Cc1c(-c2noc(-c3ccc([N+](=O)[O-])cc3)n2)no[n+]1[O-]", "inactive"],
  ["CCC(C)(C)C(=O)O[C@H]1C[C@@H](C)C=C2C=C[C@H](C)[C@H](CC[C@@H]3CC=CC(=O)O3)[C@H]21", "inactive"],
  ["N#C/C(=C\\c1c(-c2ccccc2)[nH]c2ccccc12)C(=O)c1ccccc1", "inactive"],
  ["Brc1ccc(Oc2ccc(Nc3ncnc4onc(-c5ccccc5)c34)cc2)cc1", "inactive"],
  ["Cc1cc2c(c(C)c1Cl)C(=O)/C(=C/c1ccco1)O2", "inactive"],
  ["COc1ccc2[nH]c(O)c(N=NC(=O)c3oc4ccccc4c3C)c2c1", "inactive"],
  ["Cc1cc2c(c(C)c1Cl)C(=O)/C(=C/c1cccc([N+](=O)[O-])c1)O2", "inactive"],
  ["CC1=CCC(OC(=O)C(C)(C)CCC(O)(C(=O)OC2(C(C)C)CCC3(C)OC3C2)C(C)C)(C(C)C)CC1 (stereo unspecified)", "active"],
  ["COc1cc([C@@H]2NC(=O)NC(C)=C2C(=O)Nc2nc(-c3ccc(Cl)cc3)cs2)ccc1O", "inactive"],
  ["O=C(c1ccccc1)N(C(=S)NCCc1ccc(Cl)cc1)c1ccc(Cl)cc1", "inactive"],
  ["O=C1c2ccccc2C(=O)c2c1ccc1[nH]c(CCl)nc21", "inactive"],
  ["O=c1oc2ccc(Br)cc2c(=O)n1-c1ccc(F)cc1F", "inactive"],
  ["Cc1ccc2nc(NC(=O)CSC(=S)N3CCN(c4ccccc4)CC3)sc2c1", "inactive"],
  ["Clc1ccc(COc2ccc(Nc3ncnc4onc(-c5ccccc5)c34)cc2)cc1", "inactive"],
  ["COc1cc(/C=C2\\CN(C)C/C(=C\\c3cc(CN4CCOCC4)c(O)c(OC)c3)C2=O)cc(CN2CCOCC2)c1O", "inactive"],
  ["CCCCN1CCN(c2ccc3nc(-c4ccc5nc(-c6ccc(OCC)cc6)[nH]c5c4)[nH]c3c2)CC1", "inactive"],
  ["COC(=O)c1c2c(c(C)[n+]([O-])c1C)C(=O)C=C(NCc1ccccc1)C2=O", "active"],
  ["O=C(c1nc2ccccc2[nH]1)C1C(c2ccc([N+](=O)[O-])cc2)C2CC3CCCCC3N2[C@@]12C(=O)Nc1cc(Cl)ccc12 (stereo partly specified)", "inactive"],
  ["O=C(CCc1nnc2sc(COc3ccccc3)nn12)c1nc2ncccc2[nH]1", "inactive"],
  ["O=C(/C=C/c1ccc(Cl)cc1)c1ccc(Nc2nc(NCCO)nc(Nc3ccc(Cl)cc3)n2)cc1", "inactive"],
  ["COc1ccc(Cn2cc(Cn3cc(C=C4C(=O)NC(=O)NC4=O)c4ccccc43)nn2)cc1", "inactive"],
  ["O=c1oc2ccc(F)cc2c(=O)n1-c1ccc(F)cc1F", "inactive"],
  ["CN1C(=O)N(C)C2C1NN=c1s/c(=C\\c3c[nH]c4ccccc34)c(=O)n12 (stereo unspecified)", "inactive"],
  ["CCN1C(=O)N(CC)C2C1NC(=S)N2/N=C/C=C/c1ccccc1OC (stereo unspecified)", "inactive"],
  ["CN(O)c1nc(N(C)O)nc(N2CCOCC2)n1", "active"],
  ["Cc1cc(Br)c(N)c(Br)c1", "inactive"],
  ["COc1ccccc1C(=O)/C=C/c1ccccc1", "inactive"],
  ["COc1ccc2c(c1)C=C1CSCC3=Cc4cc(OC)ccc4OC13O2", "inactive"],
  ["CN1C(=O)N(C)C2C1NN=c1s/c(=C\\c3ccc([N+](=O)[O-])cc3)c(=O)n12 (stereo unspecified)", "inactive"],
  ["COc1cc(C2C3=C(COC3=O)N(CCO)c3cc4c(cc32)CCC4)cc(OC)c1O (stereo unspecified)", "inactive"]
]}
